assay target: Polyunsaturated fatty acid 5-lipoxygenase (Homo sapiens)
Sequence (P09917 whole entry): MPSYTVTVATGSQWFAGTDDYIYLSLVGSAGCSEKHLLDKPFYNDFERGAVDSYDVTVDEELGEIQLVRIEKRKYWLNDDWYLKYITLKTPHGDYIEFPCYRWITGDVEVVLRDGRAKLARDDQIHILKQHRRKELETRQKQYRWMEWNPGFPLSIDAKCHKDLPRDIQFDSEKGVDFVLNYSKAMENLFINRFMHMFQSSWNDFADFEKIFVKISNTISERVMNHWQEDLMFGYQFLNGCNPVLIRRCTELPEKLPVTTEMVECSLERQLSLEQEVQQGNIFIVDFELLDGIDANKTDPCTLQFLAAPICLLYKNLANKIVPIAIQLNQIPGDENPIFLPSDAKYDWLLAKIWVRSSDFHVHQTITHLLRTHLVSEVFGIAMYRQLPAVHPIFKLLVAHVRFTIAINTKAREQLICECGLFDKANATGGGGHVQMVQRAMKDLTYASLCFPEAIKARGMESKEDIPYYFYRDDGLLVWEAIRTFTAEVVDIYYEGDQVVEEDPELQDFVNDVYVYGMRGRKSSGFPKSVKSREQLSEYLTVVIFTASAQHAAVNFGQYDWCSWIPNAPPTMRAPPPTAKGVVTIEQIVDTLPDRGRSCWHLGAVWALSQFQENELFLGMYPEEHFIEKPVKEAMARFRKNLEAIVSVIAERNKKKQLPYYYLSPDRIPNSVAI
assay method text: Inhibition of 5-lipoxygenase in S100 supernatant assessed as inhibition of (5(S)-hydroperoxy-6-trans-8,11,14-cis-eicosatetraenoic acid production preincubated for 15 mins measured after 10 mins by HPLC method
quantity measured: IC50 (nM)

Solved cases (5 shown):
COc1ccc(/C=C2\SC(c3ccc(Cl)cc3)=NC2=O)cc1
90
O=C1N=C(c2ccccc2)S/C1=C\c1c2ccccc2cc2ccccc12
300
COc1ccc(/C=C2\SC(c3ccc(OC)cc3)=NC2=O)cc1
4000
COc1cccc(/C=C2\SC(c3ccc(C)cc3)=NC2=O)c1O
1300
COc1ccc(OC)c(/C=C2\SC(c3ccc(C)cc3)=NC2=O)c1
130

(1) CCOc1cc(/C=C2\SC(c3ccc(C)cc3)=NC2=O)cc(Cl)c1O
(2) COc1ccc(/C=C2\SC(c3cccc(F)c3)=NC2=O)cc1
*Q* // which entry has the larger IC50 value, 1 or 2 ? Reply with the label of the item you choose.
*A* 1

Data provenance: ChEMBL document CHEMBL1765089
